Biological target: T1, Ara h 2 (peanut, UniProt Q6PSU2 23-172, 4-hydroxyproline at positions 67, 74, and 86; biotinylated in the BLI assays)
T1 construct: BLI: biotinylated (native) Ara h 2 on streptavidin sensors; also called conglutin-7; peanut allergen
T1 sequence: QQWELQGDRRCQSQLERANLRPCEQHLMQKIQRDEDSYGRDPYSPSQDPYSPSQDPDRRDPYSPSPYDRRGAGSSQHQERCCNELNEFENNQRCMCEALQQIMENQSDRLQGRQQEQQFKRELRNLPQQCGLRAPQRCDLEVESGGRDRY
Test: epitope bin summary
METRIC: binding result

27FU1P3A4 (antibody, IgG1, V domains shown, recombinant IgG1) VH: ESGGGLVQPGGSLRLSCVASGFPFDDFVFAWVRQAPGGGLEWVSAISSRRTNTFYADSVKGRFTISRDNTRKTVNLQMNSLRGEDTAVYYCAKGETRYLEWIIQSSGFDYWGPGTLVAVSS VL: QSPSSLSASVGERVTITCRANQTISTYLNWYQQKVGKAPKSLIRAASSLESGVPSRFSGSGSGTDFTLTINSLQREDFATYYCQQTYNVPPTFGQGTRVELK: binds
6BU4P2B1 (antibody, IgG1, V domains shown, recombinant IgG1) VH: VESGGGLIQPGRSLRLSCAVSGFSFDDYAMYWVRQVPGKGLEWVSGISWNSGTIEYADSVKGRFTISRDNAKKSLFLEMNSLRSEDTAIYYCAKGTGWELVSALENWGQGTVVTVSS VL: QSPSSLSASVGNKVTITCRASQTISDYLNWYQQKPGKAPKLLIYAASSLQSAVPSRFAGSGSGTEFTLTISSLQPEDFATYYCQQSYSPPFTFGPGTKVDIK: binds
14FU2P1D6 (antibody, IgG1, V domains shown, recombinant IgG1; also called 14FU1P1D6) VH: ESGPGLVKPSETLSLTCTVSGDSISSYYWSWIRQPAGKGLEWIGRIFTSGSTNINPSLKSRVTMSVDTSKNQFSLQLGSVTAADTAIYYCAKHTRDFWSDDSRVHWYFNLWGRGTLVTVSS VL: QSPGTLSLSPGERATLSCRASQSVSNNFLAWYQQQPGQAPSLLIYGASTRATGIPDRFSGSGSGTDFTLTISRLEPEDFAVYFCQQYDSSPYTFGQGTKLEIK: binds
